Reported Storage 5 and 40°C is given for each of the following compounds.
experiment: Quality of castor oil containing emulsions with different steroids (pH, volume distribution, span, storage stability); type: physicochemical; conditions: storage stability of emulsion, vehicle CO+SBO (70 : 30)

compound=CC(=O)[C@H]1CC[C@H]2[C@@H]3CC[C@H]4C[C@H](O)CC[C@]4(C)[C@H]3CC[C@]12C test_value=">3 months"
compound=C[C@]12CC[C@@H](O)C[C@@H]1CC[C@@H]1[C@@H]2CC[C@]2(C)C(=O)CC[C@@H]12 test_value=">1 month months"
compound="C[C@]12CC[C@@H](O)C[C@H]1CC[C@@H]1[C@@H]2CC[C@]2(C)[C@@H](C(=O)CO)CC[C@@H]12 [Tetrahydrodeoxycorticosterone, 5β-pregnan-3α,21-diol-20-one]" test_value=">1 month months"

# input Supply Storage 5 and 40°C value. Item: C[C@]12C=CC(=O)C=C1CC[C@@H]1[C@@H]2[C@@H](O)C[C@@]2(C)[C@H]1CC[C@]2(O)C(=O)CO [Prednisolone, reference compound]
# output >2 months

# input Note down Storage 5 and 40°C recorded for CC(=O)[C@H]1CC[C@H]2[C@@H]3CC[C@@H]4C[C@@H](O)CC[C@]4(C)[C@H]3CC[C@]12C [Epipreganolone, 5β-pregnan-3β-ol-20-one]
# output >4 months

# input Supply recorded Storage 5 and 40°C for CC(=O)[C@H]1CC[C@H]2[C@@H]3CC=C4C[C@@H](OS(=O)(=O)O)CC[C@]4(C)[C@H]3CC[C@]12C [Pregnenolone sulphate, 5-pregnen-3β-ol-20-one-sulphate] here.
# output >1 month months
